The molecules below each have a reported pKi tested on Histamine H3 receptor (Homo sapiens, UniProt Q9Y5N1); the values come from various publications.
pKi: −log10 of the molar value.
So basically: pKi at 8 or higher? That is Fulfilled. Lower than 8? That is Not fulfilled.

Use the examples below as a reference point.
INSERT INTO measurements (molecule, label_value) VALUES
  ('CN(C)CCC(Oc1ccccc1)c1ccc(C#CCCN2CCOCC2)cc1 (stereo not drawn)', 'Not fulfilled'),
  ('CSc1ccc(C2CN(C)Cc3cc(OCC4CCN(CCF)CC4)ccc32)cc1 (stereo not drawn)', 'Not fulfilled'),
  ('COc1ccc(C2CN(C)Cc3cc(OCCCN(C)c4nc5ccccc5s4)ccc32)cc1 (stereo not drawn)', 'Not fulfilled'),
  ('CN(C)CCC(Oc1ccc(F)cc1)c1ccc(OCCCN2CCCCC2)cc1 (stereo not drawn)', 'Fulfilled'),
  ('COc1ccc2c(c1)cc(CO)n2-c1ccc(OCCCN2CCCC2)cc1', 'Fulfilled');

API: the following record is the query input.
# check: pKi of COc1ccc(OC(CCN(C)C)c2ccc(OCCCN3CCCCC3)cc2)cc1 (stereo not drawn) is greater than or equal to 8
Fulfilled
